# Tested on: HCC 2998
# Assay summary: NCI tumour cell line growth inhibition, 48 h
Calls of active or inactive are those of the source. Rule as the data show it: active = GI50 up to about 1.1 µM and inactive = higher.
Assay readout: GI50

INSERT INTO measurements (compound, assay_readout, recorded_value) VALUES
  ('COC(=O)C1=C(O)C(C(=O)OC)[C@]2(O)[C@@H](C(=O)OC)[C@H]1C[C@@H](c1ccccc1)[C@@H]2C(=O)OC (stereo partly specified)', 'GI50', '14.2 µM (inactive)'),
  ('c1ccc(-c2sc(-c3cccs3)cc2Cc2cccs2)cc1', 'GI50', '> 10 µM (inactive)'),
  ('C=C(CN(C)C)C(=O)c1ccc(C(=O)C(=C)CN(C)C)cc1', 'GI50', '> 100 µM (inactive)'),
  ('c1ccc(-c2nn(-c3ccccc3)[n+](-c3ccccc3)n2)cc1', 'GI50', '1.53 µM (inactive)');

Sample O=c1[nH][nH]c(=O)n1Cc1ccccc1 ; GI50 observed: > 100 µM (inactive)

Sample O=S(=O)(/C=C/C(=C/c1ccccc1)S(=O)(=O)c1ccccc1)c1ccccc1 ; GI50 observed: 1.95 µM (inactive)

====

# System: CCRF-CEM
# Assay summary: NCI tumour cell line growth inhibition, 48 h
Activity calls are given as the source filed them. Rule as the data show it: active = GI50 up to about 1.1 µM and inactive = higher.
A correct response names exactly one class from y = active, n = inactive

Input: For Cc1ccc(S(=O)(=O)c2c3nc4ccccc4nc3n3c2[nH]c2ccccc23)cc1 , what call appears in the results of this test?
Output: n

Input: For CCSC1=N/C(=C\c2ccco2)C(Nc2ccc(C)cc2)=N1 , what call appears in the results of this test?
Output: n

Input: For COC(=O)C1(CCCCl)CCCN1C(=O)OC(C)(C)C (centres undefined) , what call appears in the results of this test?
Output: n

Input: For O=[N+]([O-])C(=C(N1CCOCC1)N1CCOCC1)/C(Cl)=C(\Cl)[N+](=O)[O-] , what call appears in the results of this test?
Output: n

Input: For CC(C)(C)C1=CC(=N/N=c2\scc(-c3ccccc3)n2-c2ccccc2)C=C(C(C)(C)C)C1=O , what call appears in the results of this test?
Output: n

Input: For CCn1ncc2c1nc(-c1ccccc1)c[n+]2[O-] , what call appears in the results of this test?
Output: n

Input: For Cc1nc2c(n1C(C)(C)C)C(=O)c1ccccc1C2=O , what call appears in the results of this test?
Output: n

Input: For COC(=O)c1c(C#N)[nH]c(-c2ccsc2)c1C(=O)OC , what call appears in the results of this test?
Output: n

Input: For O=C(O)CSc1ncccc1[N+](=O)[O-] , what call appears in the results of this test?
Output: n

Input: For C[N+](C)(C)CC1CCCC/C1=N\OC(=O)c1ccccc1 (centres undefined) , what call appears in the results of this test?
Output: n

====

# Tested on: SR
# Assay summary: NCI tumour cell line growth inhibition, 48 h
The source made the active and inactive calls. Cut-off read from the data, not from the text of the source: active = GI50 up to about 1.1 µM and inactive = higher.
A correct response names exactly one class from active, inactive

INSERT INTO results (compound, discrete_label) VALUES
  ('O=C1c2c(Cl)c(Cl)c(Cl)c(Cl)c2C(=O)N1CCN(c1c(Cl)ssc1=O)c1c(Cl)ssc1=O', 'inactive'),
  ('NC1=C2C(Br)=CN([C@@H]3O[C@H](CO)[C@@H](O)[C@@H]3O)C2C(=O)N=N1 (stereo partly drawn)', 'active'),
  ('CC(C)C(Sc1nc(N)nc2nc[nH]c12)C(=O)O (stereo not drawn)', 'inactive'),
  ('COC(=O)c1ccc(NC(=O)O/N=C(\Cl)C(C)C)cc1', 'inactive'),
  ('O=C1C=CC(O)C2C1CC13SSC4(CC5C(=O)C=CC(O)C5N4C1=O)C(=O)N23 (stereo not drawn)', 'active'),
  ('Clc1nc(Nc2nc3ccccc3[nH]2)nc(Cl)c1Cc1ccccc1', 'inactive');

Input: For COc1ccc(C(=O)C2CCC(C(=O)O)C2)cc1 (stereo not drawn) , what call appears in the results of this test?
Output: inactive

====

# System: OVCAR-5
# Assay summary: NCI tumour cell line growth inhibition, 48 h
Activity calls are given as the source filed them. No stated cut-off is given here; in the data, active = GI50 up to about 1.1 µM and inactive = higher.
Assay readout: GI50

Consider the worked cases shown below.
INSERT INTO assay_data (molecule, recorded_value) VALUES
  ('Nc1ncnc2c1ncn2CC(OCP(=O)(O)O)Oc1ccccc1 (stereo not given)', '> 100 µM (inactive)'),
  ('O=c1ccn(CC2(CO)CC(Cc3ccccc3)C2)c(=O)[nH]1 (stereo not given)', '> 100 µM (inactive)');

Sample Cc1cc(S(=O)(=O)N/C(=C(\C#N)C(=O)c2ccc(Cl)cc2)[n+]2ccc(N(C)C)cc2)c([S-])cc1Cl ; GI50 observed: 66.5 µM (inactive)

Sample CCOC(=O)C1S/C(=N\c2ccc(Cl)c(Cl)c2)N=C1C (stereo not given) ; GI50 observed: 44.1 µM (inactive)

Sample C[C@]12CC/C(=N\OC(=O)Nc3ccccc3)C=C1CC[C@@H]1C2CC[C@@]2(C)C1CC[C@@H]2OC(=O)Nc1ccccc1 (stereo not given in full) ; GI50 observed: > 100 µM (inactive)

====

# System: M14
# Assay summary: NCI tumour cell line growth inhibition, 48 h
The source made the active and inactive calls. Cut-off read from the data, not from the text of the source: active = GI50 up to about 1.1 µM and inactive = higher.
Recorded GI50, one value per entry.

Consider the worked cases shown below.
INSERT INTO measurements (molecule, measured_on, recorded_value) VALUES
  ('Cc1nn(C)c2nc3ccc(Cl)cc3c(-c3ccccc3)c12', 'M14', '> 100 µM (inactive)'),
  ('CC(=O)/C(=C\I)c1ccccc1', 'M14', '2.31 µM (inactive)'),
  ('NNC(=O)/C(=C/c1ccc(Cl)c(Cl)c1)NC(=O)c1ccccc1', 'M14', '> 100 µM (inactive)'),
  ('O=C1N[C@H]2C(=O)c3c(Cl)sc(Cl)c3[C@H]2O1', 'M14', '6.28 µM (inactive)'),
  ('c1cc2c(cc1[C@@H]1OC[C@@H]3[C@H]1CO[C@H]3c1ccc3c(c1)OCO3)OCO2', 'M14', '62.8 µM (inactive)'),
  ('Cc1ccccc1NC(=O)O/N=C(\Cl)C(C)C', 'M14', '3.22 µM (inactive)'),
  ('CC(C)(C)CC(C)(C)c1cc2c(O)c(c1)Cc1cc(C(C)(C)CC(C)(C)C)cc(c1O)Cc1cc(C(C)(C)CC(C)(C)C)cc(c1O)Cc1cc(C(C)(C)CC(C)(C)C)cc(c1O)Cc1cc(C(C)(C)CC(C)(C)C)cc(c1O)Cc1cc(C(C)(C)CC(C)(C)C)cc(c1O)Cc1cc(C(C)(C)CC(C)(C)C)cc(c1O)Cc1cc(C(C)(C)CC(C)(C)C)cc(c1O)C2', 'M14', '> 100 µM (inactive)'),
  ('O=C(O)c1ccc(C(=O)O)c(C(=O)Nc2ccc3c(c2)C(=O)c2ccccc2-3)c1', 'M14', '> 100 µM (inactive)'),
  ('C=C[C@@]1(C)CC[C@@H]2[C@@]3(C1)O[C@H]3CC1[C@](C)(C(=O)OC)CCC[C@@]12C (stereo not given in full)', 'M14', '19.6 µM (inactive)'),
  ('CCOC(=O)c1c(N2CCCC2)[nH]c(=O)c(C(c2ccc(Cl)c([N+](=O)[O-])c2)c2c(O)c(C(=O)OCC)c(N3CCCC3)[nH]c2=O)c1O', 'M14', '20.8 µM (inactive)');

Sample CC12CC3c4ccccc4CN1C3(c1ccccc1)OC2=O (stereo not given) ; GI50 observed: > 100 µM (inactive)

Sample O=C(O)CCNS(=O)(=O)c1ccc([N+](=O)[O-])cc1 ; GI50 observed: > 100 µM (inactive)

Sample CCC1(CC)C(=O)N(C(=O)c2cc(OC)c(OC)c(OC)c2)N(C(=O)c2cc(OC)c(OC)c(OC)c2)C1=O ; GI50 observed: > 50 µM (inactive)

Sample COc1cc(/C=C2\NC(=O)C(Cc3cc(OC)c(OC)c(C)c3OC)N(C(C)=O)C2=O)c(OC)c(C)c1OC (stereo not given) ; GI50 observed: > 100 µM (inactive)

Sample N=C(N)C1CN(CCc2c[nH]cn2)C(=O)NC1=O (stereo not given) ; GI50 observed: > 100 µM (inactive)

====

# Tested on: IGROV-1
# Assay summary: NCI tumour cell line growth inhibition, 48 h
Activity calls are given as the source filed them. Cut-off read from the data, not from the text of the source: active = GI50 up to about 1.1 µM and inactive = higher.
A correct response names exactly one class from TRUE for active, FALSE for inactive

// below: answered molecules
INSERT INTO measurements (molecule, discrete_label) VALUES
  ('Cn1nc2n(c1=O)CCCN2', 'FALSE'),
  ('O=C(c1ccccc1)N1C(=S)N(c2ccccn2)C(=N/c2ccccc2)/C1=N\c1ccccc1', 'FALSE'),
  ('CC1(C)O[C@@H](CO)[C@H]([C@@]23OC[C@H]4OC(C)(C)OC4[C@@H]2OC(C)(C)O3)O1 (stereo not given in full)', 'FALSE'),
  ('CC1SCCc2nc3ccccc3n21 (stereo not given)', 'FALSE'),
  ('CCN(CC)CCC(=O)c1ccc(Sc2ccc(F)cc2)cc1', 'FALSE'),
  ('C/C(CN1C(=O)c2ccccc2C1=O)=N\NS(C)(=O)=O', 'FALSE'),
  ('C=C(C)[C@H]1CC(=O)/C(C)=C\CC/C(C)=C/CC[C@@]2(C)O[C@@H]2C1', 'FALSE'),
  ('Cc1cc(N(CCC#N)CCC#N)ccc1/C=N\c1ccc(C(=O)NN2C(=O)/C(=C/c3ccc(N(CCC#N)CCC#N)cc3)N=C2c2cc([N+](=O)[O-])ccc2Cl)cc1', 'FALSE');

Input: For COc1ccc(C2=NN(C(=O)COc3ccc(Cl)cc3)C(O)(c3ccc(Cl)cc3)C2)cc1 (stereo not given) , what call appears in the results of this test?
Output: FALSE

Input: For N#CC(=N)c1ncn(CCO)c1NC(=O)C(F)(F)F , what call appears in the results of this test?
Output: FALSE

Input: For CN(C)CC1CN(C(=O)Nc2ccccc2)C(=N)O1 (stereo not given) , what call appears in the results of this test?
Output: FALSE

Cited source: ChEMBL document CHEMBL1201862
